Tested on: RPMI-8226 leukemia
Test: NCI tumour cell line growth inhibition, 48 h; in the data active = GI50 below about 0.43 µM; inactive = the rest
Give your call using only these classes: active, inactive

1. CC(=O)O[C@H](C[C@H](C(C)C)N(C)C(=O)[C@@H](NC(=O)[C@H]1CCCCN1C)C(C)C)c1nc(C(=O)N[C@@H](Cc2ccccc2)C[C@H](C)C(=O)O)c(C)s1 = active
2. CS(=O)(=O)CCNCc1ccc(-c2ccc3ncnc(Nc4ccc(OCc5ccccc5)c(C(F)(F)F)c4)c3c2)o1 = inactive
3. Nc1ncc(-c2cnn(C3CCNCC3)c2)cc1-c1nc2ccccc2o1 = inactive

Moving on to another molecule below.
Entry `O=S(=O)(NCCNc1cc(-c2cn(-c3ccccc3)nc2-c2cccc(O)c2)ccn1)c1ccc(C(F)(F)F)cc1` : call = ?
inactive
